target: PI3K-α (PIK3CA) wild-type (WT), p110α/p85α complex (Homo sapiens, UniProt P42336); construct: Recombinant, catalytically active human full length PIK3KA Wild-type and H1047R mutant; 6×His (N); purchased EMD Millipore Sigma 14-602M; test: PI3K-alpha kinase (PIK3CA) biochemical activity, ADP-Glo, wild-type; conditions: Soy PI lipid substrate
Sequence (P42336 whole entry): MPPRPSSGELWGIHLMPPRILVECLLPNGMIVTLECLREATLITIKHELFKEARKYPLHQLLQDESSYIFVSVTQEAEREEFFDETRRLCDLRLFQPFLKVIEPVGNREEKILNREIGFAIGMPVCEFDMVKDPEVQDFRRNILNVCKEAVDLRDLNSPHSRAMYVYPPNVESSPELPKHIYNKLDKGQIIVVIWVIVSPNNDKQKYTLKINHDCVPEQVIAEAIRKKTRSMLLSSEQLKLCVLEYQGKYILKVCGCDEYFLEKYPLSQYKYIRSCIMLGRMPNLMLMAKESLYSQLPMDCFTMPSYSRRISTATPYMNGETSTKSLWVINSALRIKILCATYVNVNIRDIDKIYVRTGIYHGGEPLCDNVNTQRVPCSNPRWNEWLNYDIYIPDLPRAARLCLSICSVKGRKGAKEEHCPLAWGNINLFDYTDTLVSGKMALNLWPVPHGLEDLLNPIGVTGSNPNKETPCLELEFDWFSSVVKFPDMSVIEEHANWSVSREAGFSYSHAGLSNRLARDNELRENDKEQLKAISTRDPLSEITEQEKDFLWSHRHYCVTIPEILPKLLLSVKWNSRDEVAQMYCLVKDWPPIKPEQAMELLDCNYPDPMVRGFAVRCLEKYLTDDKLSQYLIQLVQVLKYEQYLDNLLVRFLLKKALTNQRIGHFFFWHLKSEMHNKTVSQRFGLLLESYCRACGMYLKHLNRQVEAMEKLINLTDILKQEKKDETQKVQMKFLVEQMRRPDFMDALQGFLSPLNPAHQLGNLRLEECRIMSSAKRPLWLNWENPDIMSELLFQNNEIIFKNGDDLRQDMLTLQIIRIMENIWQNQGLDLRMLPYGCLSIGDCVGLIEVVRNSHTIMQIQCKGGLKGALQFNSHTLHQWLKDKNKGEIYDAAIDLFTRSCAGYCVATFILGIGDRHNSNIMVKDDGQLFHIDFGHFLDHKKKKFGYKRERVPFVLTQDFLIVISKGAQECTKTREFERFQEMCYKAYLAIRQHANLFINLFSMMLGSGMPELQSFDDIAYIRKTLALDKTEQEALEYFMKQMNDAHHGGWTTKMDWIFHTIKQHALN
Sequence (P27986 whole entry partner): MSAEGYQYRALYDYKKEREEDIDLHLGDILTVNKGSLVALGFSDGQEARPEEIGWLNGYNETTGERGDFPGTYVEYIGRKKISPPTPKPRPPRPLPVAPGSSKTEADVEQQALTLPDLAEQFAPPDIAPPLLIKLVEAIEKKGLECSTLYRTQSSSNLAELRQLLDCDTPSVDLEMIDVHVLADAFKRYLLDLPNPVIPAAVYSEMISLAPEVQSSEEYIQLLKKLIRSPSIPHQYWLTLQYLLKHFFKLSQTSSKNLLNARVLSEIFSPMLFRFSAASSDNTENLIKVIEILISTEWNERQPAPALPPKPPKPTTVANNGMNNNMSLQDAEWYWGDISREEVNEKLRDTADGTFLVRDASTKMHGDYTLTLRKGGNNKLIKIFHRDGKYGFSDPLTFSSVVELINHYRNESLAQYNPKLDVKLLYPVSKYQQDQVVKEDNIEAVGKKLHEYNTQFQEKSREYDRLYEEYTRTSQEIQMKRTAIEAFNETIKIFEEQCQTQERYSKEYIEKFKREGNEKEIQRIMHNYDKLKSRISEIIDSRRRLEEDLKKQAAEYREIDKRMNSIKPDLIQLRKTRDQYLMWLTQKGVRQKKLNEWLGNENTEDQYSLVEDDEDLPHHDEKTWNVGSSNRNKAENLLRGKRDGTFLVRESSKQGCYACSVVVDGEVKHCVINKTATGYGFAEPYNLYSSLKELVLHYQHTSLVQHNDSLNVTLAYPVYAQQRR
value-kind: IC50

>>> reading("Cc1cc(C(C)Nc2ccccc2C(=O)O)c2oc(-c3ccc4c(c3)CN(C)C4=O)cc(=O)c2c1 (single isomer, unassigned) [Example 32]")
"5 to 10 µM"
>>> reading("Cc1cc([C@@H](C)Nc2ccc(F)cc2C(=O)O)c2oc(-c3ccc4nn(C)cc4c3)c(C)c(=O)c2c1 [Example 253]")
"< 0.5 µM"
>>> reading("Cc1cc(C(C)Nc2ccccc2C(=O)O)c2oc(-c3ncc4cc(C)[nH]c4n3)cc(=O)c2c1 (single isomer, unassigned) [Example 72]")
"0.5 to 1 µM"
>>> reading("Cc1cc([C@@H](C)Nc2cccc(F)c2C(=O)O)c2oc(-c3ccc4c(cnn4C)c3)cc(=O)c2c1 [Example 197]")
"0.5 to 1 µM"
>>> reading("Cc1cc(C(C)Nc2ccc(Cl)nc2C(=O)O)c2oc(-c3nn(C)c4ccccc34)c(C)c(=O)c2c1 (single isomer, unassigned) [Example 170]")
"< 0.5 µM"
>>> reading("Cc1cc(C(C)Nc2ccccc2C(=O)O)c2oc(-c3ccc4nc(C)sc4n3)cc(=O)c2c1 (single isomer, unassigned) [Example 139]")
"1 to 5 µM"
